Known change in vivo at 10 mg/kg of a selection of compounds
tested on: SD rats; assay: Echocardiography of systolic cardiac performance (HR, FS, LV volumes, SWT) after a single oral dose; assay type: in vivo; conditions: Rattus norvegicus, single dose 10 mg/kg PO, ~2 hrs post-dosing, isoflurane-anesthetized, EDV change vs vehicle, read-out: EDV % vs. VEH

- compound: "Cc1nccc2[nH]c(=O)c(CC(=O)N[C@@H](C)c3ccc(C#N)cc3F)c(C)c12 (single isomer, unassigned)"
  change in vivo at 10 mg/kg: "1 to 20%"
- compound: "C[C@@H](NC(=O)Cc1cc2c(F)c(F)ccc2[nH]c1=O)c1ncc(C#N)cc1F"
  change in vivo at 10 mg/kg: "11 to 20%"
- compound: "C[C@@H](NC(=O)Cc1cc2c(F)c(F)ccc2[nH]c1=O)c1ncc(C#N)cn1 (single isomer, unassigned)"
  change in vivo at 10 mg/kg: "1 to 20%"
- compound: "C[C@H](NC(=O)Cc1cc2c(F)c(F)ccc2[nH]c1=O)c1ncc(C#N)cc1F"
  change in vivo at 10 mg/kg: "1 to 10%"
- compound: "Cc1c(CC(=O)N[C@H](C)c2ncc(C#N)cc2F)c(=O)[nH]c2ccc(F)c(F)c12"
  change in vivo at 10 mg/kg: "1 to 20%"
